- assayText: RP, Thermo Scientific Acclaim RSLC 120 C18, 100 × 2.1 mm, 2.2 µm, 30 °C, 0.2 mL/min, estimated dead time 1.1 min; A: 90% water + 10% methanol + 0.01% formic acid + 5 mM ammonium formate, pH 3.61; B: methanol + 0.01% formic acid + 5 mM ammonium formate, pH 3.61; gradient (min/%B) 0/1 1/1 2/39 13/99.9 15/99.9 15.1/1 20.1/1
- cond: stereoisomer not certain
endpointName: LC retention time
Remember to follow the number with its unit.

Use these answered entries as a reference point.
[
  {
    "compound": "CCOP(=S)(OCC)SCCS(=O)CC (centres undefined) [Disulfoton-sulfoxide]",
    "LC retention time": "7.86 min"
  },
  {
    "compound": "CCCC1C(=O)N2C(N(C)C)=Nc3ccc(C)cc3N2C1=O (centres undefined) [Azapropazone]",
    "LC retention time": "6.54 min"
  },
  {
    "compound": "COc1c(Cl)ccc(Cl)c1C(=O)O [Dicamba]",
    "LC retention time": "4.97 min"
  },
  {
    "compound": "CSC(C)=NOC(=O)N(C)SN(C)C(=O)ON=C(C)SC [Thiodicarb]",
    "LC retention time": "7.64 min"
  },
  {
    "compound": "O=C(Nc1ccc(F)cc1)c1cccc(Oc2cccc(C(F)(F)F)c2)n1 [Picolinafen]",
    "LC retention time": "12.3 min"
  }
]

Parameter requested: LC retention time. Apply to each item below.
1. CNC(=O)Oc1cc(C)c(C)c(C)c1.CNC(=O)Oc1cc(C)cc(C)c1C [Trimethacarb (2.3.5-)]
2. CC(=O)OCC(=O)C1(O)C(C)CC2C3CCC4=CC(=O)C=CC4(C)C3(F)C(O)CC21C (centres undefined) [Betamethasone acetate]

["8.4 min", "9.37 min"]

Parameter requested: LC retention time. Apply to each item below.
1. CCNC(C)C(=O)c1ccc2c(c1)OCO2 (centres undefined) [Ethylone]
2. c1cncc(C2CCCN2)c1 (centres undefined) [Nicotine-Nor]

4.04 min
2.44 min

###

Can you tell me LC retention time for the items I'm about to list?
- assayText: RP, Waters ACQUITY UPLC BEH C18, 100 × 2.1 mm, 1.7 µm, 30 °C, 0.35 mL/min, estimated dead time 0.63 min; A: water + 0.01% formic acid + 5 mM ammonium formate, pH 3.71; B: acetonitrile + 0.01% formic acid, pH 3.71; gradient (min/%B) 0/10 3/10 22/100 30/100 30.1/10 40/10
- cond: stereoisomer not certain
Numbers only, in min.

[
  {
    "molecule": "COc1cc2c(c(OC)c1OC)-c1ccc(OC)c(=O)cc1C(NC(C)=O)CC2 (configuration not stated) [Colchicine]",
    "unitOfMeasure": "min",
    "LC retention time": 8.29
  },
  {
    "molecule": "C#CCN(C)C(C)Cc1ccccc1 (configuration not stated) [Deprenyl/Selegiline]",
    "unitOfMeasure": "min",
    "LC retention time": 5.98
  }
]

Parameter requested: LC retention time. Apply to each item below.
1. COP(N)(=O)SC (configuration not stated) [Methamidophos]
2. CC(N)Cc1ccc2c(c1)OCO2 (configuration not stated) [MDA]
3. COC(=O)c1ccccc1C(=O)OC [Phthalate-Dimethyl]
4. CCCCOc1ccc(CC(=O)NO)cc1 [Bufexamac]

1: 1.18; 2: 3.36; 3: 9.38; 4: 9.74

Parameter requested: LC retention time. Apply to each item below.
1. Nc1ncnc2c1ncn2C1OC(CO)C(O)C1O (configuration not stated) [Adenosine]
2. CCN1CCN(C(=O)NC(C(=O)NC2C(=O)N3C(C(=O)O)=C(CSc4nnnn4C)CSC23)c2ccc(O)cc2)C(=O)C1=O (configuration not stated) [Cefoperazone]
3. CCSCc1ccccc1OC(=O)NC [Ethiofencarb]
4. COc1ccc(Cc2cnc(N)nc2N)cc1OC [Diaveridine]
5. CC(C)NCC(O)COc1cccc2ccccc12 (configuration not stated) [Propranolol]
6. CCOC(=O)c1ccccc1C(=O)OCC [Phthalate-Diethyl]

1. 1.31
2. 6.08
3. 10.7
4. 3.36
5. 8.91
6. 12.2

Parameter requested: LC retention time. Apply to each item below.
1. CC12CCC(=O)C=C1CCC1C2CCC2(C)C(O)CCC12 (configuration not stated) [Testosterone]
2. COP(=O)(OC)OC=C(Cl)Cl [Dichlorvos]
3. CC(C)NCC(O)COc1cccc2[nH]ccc12 (configuration not stated) [Pindolol]
4. Cn1c(=O)c2[nH]cnc2n(C)c1=O [Theophylline]

1: 11.6; 2: 9.14; 3: 4.14; 4: 1.66
